target: Brainiac β1-3-N-acetylglucosaminyltransferase (Drosophila melanogaster, UniProt Q24157); construct: The full coding region of Brainiac was prepared by PCR using genomic DNA; made in house; host or cells: High Five insect cells (baculovirus vector pVL1393); microsomal fractions; assay: Substrate specificities of Brainiac β1-3-N-acetylglucosaminyltransferase (acceptor panel, microsomal preparations); format: biochemical; details: substrate 2 mM; microsomes of pVL-Brainiac infected High Five cells; background of irrelevant construct subtracted; donor UDP-GlcNAc
Sequence (Q24157 whole entry): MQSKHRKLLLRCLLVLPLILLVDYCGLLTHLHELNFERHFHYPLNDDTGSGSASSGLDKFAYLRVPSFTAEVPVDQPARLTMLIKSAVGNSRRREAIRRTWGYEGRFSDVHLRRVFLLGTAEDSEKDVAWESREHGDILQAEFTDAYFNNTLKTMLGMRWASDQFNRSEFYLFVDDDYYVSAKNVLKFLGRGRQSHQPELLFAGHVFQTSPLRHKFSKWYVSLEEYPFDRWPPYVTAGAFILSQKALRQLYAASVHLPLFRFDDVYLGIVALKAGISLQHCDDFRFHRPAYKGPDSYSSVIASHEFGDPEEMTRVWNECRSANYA
property-label: Brainiac activity with substrate (nmol/h/mg)
Report the value in nmol/h/mg with no unit label.

Please review the following examples before continuing.
compound: OC[C@H]1OC(O)[C@@H](O)[C@@H](O)[C@@H]1O (stereo partly drawn) [D-Man]
measured-on: Brainiac β1-3-N-acetylglucosaminyltransferase (Drosophila melanogaster, UniProt Q24157)
Brainiac activity with substrate / nmol/h/mg: 0.28
//
compound: OC[C@H]1O[C@@H](O[C@H]2[C@H](O)[C@@H](O)[C@H](OCc3ccccc3)O[C@@H]2CO)[C@H](O)[C@@H](O)[C@H]1O [Galβ1-4Glcβ1-Bzl]
measured-on: Brainiac β1-3-N-acetylglucosaminyltransferase (Drosophila melanogaster, UniProt Q24157)
Brainiac activity with substrate / nmol/h/mg: 0.48
//
compound: CO[C@H]1O[C@H](CO)[C@@H](O[C@H]2O[C@H](CO)[C@@H](O)[C@H](O)[C@@H]2O)[C@H](O)[C@@H]1O [Manα1-4Manα1-Me]
measured-on: Brainiac β1-3-N-acetylglucosaminyltransferase (Drosophila melanogaster, UniProt Q24157)
Brainiac activity with substrate / nmol/h/mg: 0.00

Looking up C[C@@H]1OC(N)[C@@H](O)[C@H](O)[C@@H]1O (stereo partly drawn) [L-Fucosylamine] , I found its Brainiac activity with substrate recorded as 0.28

Reference for the values: patent US20030153056A1
